meta.source: ChEMBL document CHEMBL1146768

Property: pIC50; scope: individual compounds
- tested target: Coagulation factor X (Homo sapiens)
- Sequence (P00742 41-179 limits assumed): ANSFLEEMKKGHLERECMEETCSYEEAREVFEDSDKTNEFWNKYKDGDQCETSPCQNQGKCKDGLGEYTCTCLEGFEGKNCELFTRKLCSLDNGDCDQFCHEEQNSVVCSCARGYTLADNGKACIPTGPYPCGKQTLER
- Sequence (P00742 235-488 limits assumed): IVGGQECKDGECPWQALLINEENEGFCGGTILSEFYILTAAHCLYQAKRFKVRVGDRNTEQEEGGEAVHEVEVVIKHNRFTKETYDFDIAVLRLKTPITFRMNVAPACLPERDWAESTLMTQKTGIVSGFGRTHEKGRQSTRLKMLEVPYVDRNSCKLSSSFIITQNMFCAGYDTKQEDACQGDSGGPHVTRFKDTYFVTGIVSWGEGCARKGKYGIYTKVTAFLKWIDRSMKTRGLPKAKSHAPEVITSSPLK
pIC50: −log10 of the molar value.
observable: pIC50

compound: CN1CCc2nc(C(=O)N3CCN(S(=O)(=O)c4ccc5cc(Cl)ccc5c4)CC3C(=O)NCC(N)=O)sc2C1 (centres undefined)
observable: pIC50
reported measurement: 7.64

compound: CNC(=O)C1CN(S(=O)(=O)c2ccc3cc(Cl)ccc3c2)CCN1C(=O)c1nc2c(s1)CN(C)CC2 (centres undefined)
observable: pIC50
reported measurement: 7.57

compound: CC(C)NC(=O)C1CN(S(=O)(=O)c2ccc3cc(Cl)ccc3c2)CCN1C(=O)c1nc2c(s1)CN(C)CC2 (centres undefined)
observable: pIC50
reported measurement: 7.35

compound: CN1CCc2nc(C(=O)N3CCN(S(=O)(=O)c4ccc5cc(Cl)ccc5c4)CC3C(=O)NCc3ccccc3)sc2C1 (centres undefined)
observable: pIC50
reported measurement: 6.19
